Assay Comment: cell viability in Huh7 cells, primary screen, cytotoxicity control for HCV replication inhibitor project, CellTiter-Glo luminescence, basal, 48 h (AID 1143);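 also: Huh7 hepatoma cells carrying a hepatitis C replication reporter with no stimulus; test concentration not given here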
Details: Huh7 HCV replicon, higher = more signal, called active from +8 up or from −8 down
Property Name: z-score
Give the value as a plain number.

CC(C)[C@@H](OCc1ccccc1)[C@H](C)CON=C1[C@H]2CCn3c(=O)n(-c4ccccc4)c(=O)n3[C@H]2[C@H](O)[C@@H]2O[C@H]12 ... -0.367
CCOC(=O)[C@H](Cc1ccccc1)NC(=O)CCC1CC(OC(=O)NCc2ccc3c(c2)OCO3)CC2(CCCC(COC(=O)NCCCN3CCCC3=O)O2)O1 (some centres not stated) ... -1.98

Tell us which z-score value is on record for `C[C@H]1CC[C@H]2C(=O)O[C@H](CO)CN2[C@@H]1c1ccc(Br)cc1`
-0.98

Quote z-score reported for `CC(C)CON=C1[C@H]2CCn3c(=O)n(C)c(=O)n3[C@H]2[C@H](O)[C@@H]2O[C@H]12` please.
0.736

Write down z-score measured for item `COC(=O)[C@@H]1CC[C@H](C)[C@@H](c2ccc(Br)cc2)N1C[C@@H](O)CN=[N+]=[N-]`
-3.06

Give z-score for the following compound: `C#CCCCON=C1C[C@@H](O)[C@@H](O)[C@@H]2[C@@H]3C(=O)N(C[C@@H]4CCCO4)C(=O)[C@@H]3CC[C@H]12`
0.119

Provide one value: measured z-score of `CC(=O)OC[C@H]1O[C@H](CC=NO[C@@H](C)c2cc(-c3c(C)cc(C)cc3C)no2)C=C[C@@H]1OC(C)=O`
0.125

* * *

Assay Comment: FRG1 promoter luciferase signal modulators, primary screen, FRG1 inhibition for FSHD, cell-based, C2C12 myotubes, firefly/Renilla luciferase, luminescence (AID 1084)
Details: higher = more signal, called active from +8 up or from −8 down
Activity calls are given as the source filed them.
Listed here: items and their measured z-score.

Field: example entries. Status: answers known.
CO[C@@H](C1CCCCC1)[C@@H](C)[C@H](OCc1cccc(Br)c1)[C@@H](C)CO ... 2.57 (inactive)
O=C1CCCC=C1C(O)C1CCCCC1 (centres undefined) ... 0.0424 (inactive)
COC(=O)[C@H](Cc1ccccc1)NC(=O)[C@@H](C)CO ... 0.313 (inactive)
CCOC(=O)NN=C1C[C@@H](O)[C@@H](O)[C@@H]2[C@@H]3C(=O)N(CC)C(=O)[C@@H]3CC[C@H]12 ... -0.323 (inactive)
O=C1[C@H]2[C@H]3[C@H](O)[C@H](O)CC(=NO[C@@H]4O[C@H](CO)[C@@H](O)[C@H](O)[C@H]4O)[C@H]3CC[C@H]2C(=O)N1C[C@@H]1CCCO1 ... 0.189 (inactive)
C[C@@H](c1ccccc1)N1C(=O)[C@H]2[C@H]3[C@H](O)[C@H](O)CC(=NNC(=O)OCc4ccccc4)[C@@H]3CC[C@H]2C1=O ... -0.491 (inactive)
CCOC(=O)CCN1C(=O)[C@H]2[C@H]3[C@H](O)[C@H](O)CC(=NNC(=O)OCC)[C@H]3CC[C@H]2C1=O ... 0.115 (inactive)
COc1ccc(COC(=O)NN=C2C[C@@H](O)[C@@H](O)[C@@H]3[C@@H]4C(=O)N(C[C@@H]5CCCO5)C(=O)[C@@H]4CC[C@@H]23)cc1 ... -0.913 (inactive)

Give recorded z-score. CCOC(=O)[C@H](Cc1ccccc1)NC(=O)CCC1CC(OC(=O)NCc2cccc3ccccc23)CC2(CCCC(COC(=O)NCC3CCCCC3)O2)O1 (some centres undefined)
0.0184 (inactive)

Specify z-score for CC(=O)OC[C@H]1O[C@H](CC=NOC(C)CN2CCCCc3nc(C)c(C)cc32)C=C[C@@H]1OC(C)=O (some centres undefined) and stop.
0.851 (inactive)

Using known records, supply z-score for `C=CC[C@@H]1C=C[C@H](ON=C(C)CCN2CCCc3nc(C)c(C)cc32)[C@@H](CO)O1`
1.67 (inactive)

For the molecule `O=C1[C@H]2[C@H]3[C@H](O)[C@H](O)CC(=NOC[C@@H](O)COCc4ccco4)[C@@H]3CC[C@H]2C(=O)N1c1cccc(Oc2ccccc2)c1` , report z-score.
-0.0105 (inactive)

Report z-score for `CCOC(=O)CCN1C(=O)[C@H]2[C@H]3[C@H](O)[C@H](O)CC(=NOCC=C(C)CCC=C(C)C)[C@@H]3CC[C@H]2C1=O`
-0.594 (inactive)

// Input: `CON=C(C)CCN1CCc2nc(-c3ccccc3)c(-c3ccccc3)cc2C1` . Output its z-score only.
0.953 (inactive)

In one line, give reported z-score of the entry `Cc1ccc(S(=O)(=O)N[C@@H]2COC(=O)CC=C[C@@H](C)[C@H](NS(=O)(=O)c3ccc(C)cc3)COC(=O)[C@H](C)NC(=O)CC=C[C@H]2C)cc1` .
-0.138 (inactive)

Dear colleague, please send me the reported z-score for `CCOC(=O)NN=C1C[C@@H](O)[C@@H](O)[C@@H]2[C@@H]3C(=O)N(c4ccc(F)cc4F)C(=O)[C@@H]3CC[C@H]12` when you can.
0.816 (inactive)

Item `C[C@H]1CC[C@@H](C(=O)O)N[C@@H]1c1cccc(N2CCCC2=O)c1` : provide z-score
0.304 (inactive)

Give z-score for the following molecule: `O=C(NN=C1C[C@@H](O)[C@@H](O)[C@@H]2[C@@H]3C(=O)N(Cc4ccccc4)C(=O)[C@@H]3CC[C@H]12)OCc1ccccc1`
0.157 (inactive)

Find the measured z-score of `O=C1[C@H]2[C@H]3[C@H](O)[C@H](O)CC(=NO[C@@H]4O[C@H](CO)[C@@H](O)[C@H](O)[C@H]4O)[C@@H]3CC[C@H]2C(=O)N1C[C@@H]1CCCO1` and report it.
0.746 (inactive)

* * *

System: PRMT1 (protein arginine N-methyltransferase 1)
Assay Comment: PRMT1 binders on small-molecule microarrays, primary screen, biochemical, small-molecule microarray, 635 nm fluorescence (AID 1088);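 also: binding of Prmt1 protein to compounds spotted on small-molecule microarray slides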
Details: small-molecule microarray binding, higher = more signal
The entries below come with measured composite z-score values attached.
Respond using a number only.

These recorded examples may help you get a feel for the data.
CCOC(=O)CCN1C(=O)[C@H]2[C@H]3[C@H](O)[C@H](O)CC(=NOCC=C(C)CCC=C(C)C)[C@H]3CC[C@H]2C1=O ... 0.467
CO[C@@H](C(C)C)[C@@H](C)C1OC(=O)CC1O (stereo partly specified) ... -0.255
COC(=O)CC=C1c2ccccc2[C@H](OC)[C@H]1C ... -0.32
CC(=O)OC[C@H]1O[C@H](CC=NO[C@@H](C)c2cc(-c3c(C)cc(C)cc3C)no2)C=C[C@@H]1OC(C)=O ... -0.0654
COc1cccc([C@H](O)Cn2cc(-c3ccc(CON=C(C)C)cc3)nn2)c1 ... 0.0112
CCOC(=O)[C@H](Cc1ccccc1)NC(=O)CCC1CC(OC(=O)NCc2ccc3c(c2)OCO3)CC2(CCCC(COC(=O)NCCOC)O2)O1 (stereo partly specified) ... 1.56

Provide one value: measured composite z-score of `COC(=O)[C@H](Cc1ccccc1)NC(=O)[C@@H](C)CO`
1.41

Consider the compound `COC(=O)[C@@H]1CC[C@H](C)[C@@H](c2ccc(Br)cc2)N1C(=O)C(F)(F)F` . State its measured composite z-score.
-1.18

Supply measured composite z-score of `CC#CCOCCC=C1c2ccccc2[C@@H](OC)[C@@H]1C` in your reply.
0.513

// Input: `CC(C)(C)N1C(=O)[C@H]2[C@H]3[C@H](O)[C@H](O)CC(=NOC[C@@H](O)COCc4ccco4)[C@H]3CC[C@H]2C1=O` . Output its composite z-score only.
0.446

Read off the recorded composite z-score for `CON=C(C)CCN1CCCCc2nc(C)c(C)cc21`
0.46

For the compound `CO[C@H]1COC(=O)[C@H](CCSC)NC(=O)CC=C[C@@H](C)[C@H](OC)COC(=O)[C@@H](OCc2ccccc2)C=C[C@@H]1C` , give its reported composite z-score.
1.56

Note composite z-score for the compound shown: `CCOC(=O)CCN1C(=O)[C@H]2[C@H]3[C@H](O)[C@H](O)CC(=NO[C@@H]4O[C@H](CO)[C@@H](O)[C@H](O)[C@H]4O)[C@H]3CC[C@H]2C1=O`
-0.145

Give the reported composite z-score for this compound. CCCCOC(OCCCC)C(O)CSc1ccc2ccccc2c1 (stereo unspecified)
0.642

Query composite z-score for `CO[C@@H]1COC(=O)CC=C[C@H](C)[C@H](OC)COC(=O)[C@@H]2CCCN2C(=O)CC=C[C@H]1C`
0.684

Kindly indicate its recorded composite z-score. Item: `COc1ccc(OC[C@H]2CN3[C@@H](CC[C@@H](C)[C@@H]3c3ccc(Br)cc3)C(=O)O2)cc1`
0.591
